experimental protocol: Drug metabolism assessed as trypsin (unknown origin)-mediated digestion by measuring compound remaining at 0.09 uM after 60 mins by HPLC analysis
Type: ADME
details: human, read-out: Stability
*1 amine or outer side, *2 acyl side, *3 side chain or, on linkers, in order; H or OH if unused. Where a SMILES comes first, the peptide text is derived from it. Bridges are numbered along the chain shown (N, C = ends). [ ]: non-standard residue; d: D form. Nle(6-ylidene) = O=C([C@H](CCCC=[*:3])N[*:1])[*:2]; S5 = C=CCCC[C@](C)(N)C(=O)O
Quick reference: remaining at 1 h, 0.09 µM of the listed items.
outcome measure: remaining at 1 h, 0.09 µM (%)

>  <compound>
CC(=O)N[C@H](C(=O)N[C@@H](CC(C)C)C(=O)N[C@@H](CCCCN)C(=O)N[C@@H](CCC(N)=O)C(=O)N[C@@H](Cc1c[nH]c2ccccc12)C(=O)N[C@@]1(C)CCC/C=C\CCC[C@@H](C(=O)N[C@@H](CCCCN)C(=O)N[C@@H](CC(=O)O)C(=O)N[C@@H](CC(C)C)C(=O)N[C@H](C(=O)N[C@@H](CCCCN)C(N)=O)C(C)C)NC(=O)[C@H](C(C)C)NC(=O)CNC(=O)[C@H](CCCCN)NC1=O)[C@@H](C)O (Ac-TLKQW[S5]KGV[Nle(6-ylidene)]KDLVK-NH2; staple (Z) 6-10)

>  <outcome measure>
remaining at 1 h, 0.09 µM

>  <comparison operator>
>

>  <value>
90

$$$$
>  <compound>
CC(=O)N[C@H](C(=O)N[C@@H](CC(C)C)C(=O)N[C@@H](CCCCN)C(=O)N[C@@H](CCC(N)=O)C(=O)N[C@@H](Cc1ccccc1)C(=O)N[C@@]1(C)CCC/C=C\CCC[C@@H](C(=O)N[C@@H](CCCCN)C(=O)N[C@@H](CC(=O)O)C(=O)N[C@@H](CC(C)C)C(=O)N[C@H](C(=O)N[C@@H](CCCCN)C(N)=O)C(C)C)NC(=O)[C@H](Cc2c[nH]c3ccccc23)NC(=O)CNC(=O)[C@H](CCCCN)NC1=O)[C@@H](C)O (Ac-TLKQF[S5]KGW[Nle(6-ylidene)]KDLVK-NH2; staple (Z) 6-10)

>  <outcome measure>
remaining at 1 h, 0.09 µM

>  <comparison operator>
=

>  <value>
75

$$$$

Reference source for all entries: ChEMBL document CHEMBL3091300
